# Test system: nitrilase SEQ ID NOS:385, 386 (nitrilase I), obtained from an environmental sample
# Test Protocol: High throughput nitrilase activity assay, turnover frequency on mandelonitrile derivatives
# Assay type: biochemical, Unknown (obtained from an environmental sample)
# Condition Set: 25 mM substrate, 0.12 mg/mL enzyme, 10% MeOH (v/v) 0.1 M phosphate buffer, 37°C, pH 8; 5 min timepoint
Could you please report measured TOF (turnover frequency) for the items listed next?

# batch size: 8; output TOF (turnover frequency) per entry
1. N#CC(O)c1ccccc1Br (stereo not drawn)
2. N#CC(O)c1cccc(Br)c1 (stereo not drawn)
3. N#CC(O)c1ccsc1 (stereo not drawn) [3-thienyl cyanohydrin]
4. Cc1ccccc1C(O)C#N (stereo not drawn)
5. N#CC(O)c1ccccc1Cl (stereo not drawn)
6. N#CC(O)c1cccc(Cl)c1 (stereo not drawn)
7. N#CC(O)c1cccnc1 (stereo not drawn) [3-pyridyl cyanohydrin]
8. N#CC(O)c1ccccc1 (stereo not drawn)

1. 5.6 mol product/mol catalyst/sec
2. 1.7 mol product/mol catalyst/sec
3. 16.8 mol product/mol catalyst/sec
4. 5.1 mol product/mol catalyst/sec
5. 1.7 mol product/mol catalyst/sec
6. 3.4 mol product/mol catalyst/sec
7. 18.6 mol product/mol catalyst/sec
8. 28 mol product/mol catalyst/sec

Please tell me: TOF (turnover frequency) of N#CC(O)c1ccc(F)cc1 (stereo not drawn) , system nitrilase SEQ ID NOS:385, 386 (nitrilase I), obtained from an environmental sample?
11.8 mol product/mol catalyst/sec
